Test system: rat
TEST_DESCRIPTION: Benzedrine provoked motor activity (R)
Type: in vivo
RUN_PARAMETERS: PO, read-out: Benzedrine provoked motor activity, 50% effective dose
Listed compounds paired with reported ED50

Examples with answers:
O=C([O-])C1N=C(c2ccccc2)c2cc(Cl)ccc2NC1=O.[K+] (stereo not shown) [4311 CB] : 50 mg/kg
CN1C(=O)CN=C(c2ccccc2)c2cc(Cl)ccc21 [Diazepame, reference compound] : 100 mg/kg
CCOC(=O)C1N=C(c2ccccc2)c2cc(Cl)ccc2NC1=O (stereo not shown) [4279 CB] : > 100 mg/kg
O=C(O)C1N=C(c2ccccc2)c2cc([N+](=O)[O-])ccc2NC1=O.[K+].[K+].[OH-].[OH-] (stereo not shown) [4335 CB] : 100 mg/kg
O=C1CN=C(c2ccccc2)c2cc(Cl)ccc2N1 [Nor-diazepame, reference compound] : 100 mg/kg
CNC1=Nc2ccc(Cl)cc2C(c2ccccc2)=[N+]([O-])C1 [Chlordiazepoxide, reference compound] : > 100 mg/kg

Now consider a different compound.
Query O=C(O)C1N=C(c2ccccc2)c2cc(Cl)ccc2NC1=O.[K+].[K+].[OH-].[OH-] (stereo not shown) [4306 CB] yields ED50 of > 100 mg/kg
